B1: ZNF449 (parent)
chain: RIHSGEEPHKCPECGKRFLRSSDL

# Variants of: B1
# Assay notes: protein stability index of a GFP-peptide fusion (GPS, HEK-293T) (PSI 1-6); higher = more stable;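 further: lentivirally expressed fusions sorted by FACS into six bins by GFP to DsRed ratio, PSI derived from sequencing read proportions per bin multiplied by bin number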
# Measurement setup: c terminus: a fixed tail appended
Decide using protein stability index: a value greater than or equal to 4 is MET, a smaller one is NOT MET.

Solved cases (5 shown):
Variant annotation: C11P
Category label: MET
--
Variant annotation: E13T
Category label: NOT MET
--
Variant annotation: S22N
Category label: NOT MET
--
Variant annotation: G5Q
Category label: NOT MET
--
Variant annotation: P12N
Category label: MET

Req: // inclusive: protein stability index at least 4? input: "L19G"
Resp: MET

Req: Is reported protein stability index greater than or equal to 4 here: "S4M"
Resp: NOT MET

Req: Is reported protein stability index greater than or equal to 4 here: "R20H"
Resp: NOT MET

Req: Assess whether reported protein stability index for "F18Y" sits at 4 or higher.
Resp: NOT MET
